method_notes: RAM signaling pathway blockade in yeast – S. cerevisiae, Pdr1DBD-CYC8 efflux-inhibited sensitized strain, primary screen (AID 1298);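 further: 0% = DMSO untreated cells without growth and 100% = 10 µM 1-NA-PP1 full growth; higher means more yeast growth rescued from 5-FOA killing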
measurement_context: S. cerevisiae cbk1-as DSE1-URA3 strain, 5-FOA growth OD615, 2 d; at 50 µM; hits give high values
Activity calls are given as the source filed them.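 How the source made its calls: active means RAM network inhibition above 8.4% in each of two replicates, 3 SD over the compound average; inconclusive means above 8.4% inhibition in only one replicate; inactive means 8.4% inhibition or less in each replicate.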
Reported RAM network inhibition values for the following compounds.

{"compound": "CCOC(=O)c1c(NC(=O)c2ccc(Br)o2)sc(C)c1CC", "RAM network inhibition": "9.97% (inactive)"}
{"compound": "c1ccc(Cn2nnc3c(N4CCCCCC4)ncnc32)cc1", "RAM network inhibition": "5.41% (inactive)"}
{"compound": "Cc1ccc2c(c1)C1CCCC3C1N2CC(=O)N3Cc1ccccc1 (configuration not stated)", "RAM network inhibition": "7.32% (inactive)"}
{"compound": "COC(=O)C1C2C=CC3(CN(c4cccc(Cl)c4)C(=O)C13)O2 (configuration not stated)", "RAM network inhibition": "5.74% (inactive)"}
{"compound": "CCn1c(CCC(=O)Nc2cc(F)ccc2C)nc2cc(S(=O)(=O)N(C)C)ccc21", "RAM network inhibition": "6.18% (inactive)"}
{"compound": "CCc1cccc(NC(=O)CCc2nc(-c3cccs3)no2)c1", "RAM network inhibition": "-1.4% (inactive)"}
{"compound": "CCCCSc1nc(CCC)cc(=O)[nH]1", "RAM network inhibition": "6.04% (inactive)"}
